Target: T1, Factor VIIIa (FVIIIa), from recombinant FVIII (Kogenate FS; Bayer healthcare) activated with alpha-thrombin (UniProt P00451 20-2351)
T1 sequence (looked up): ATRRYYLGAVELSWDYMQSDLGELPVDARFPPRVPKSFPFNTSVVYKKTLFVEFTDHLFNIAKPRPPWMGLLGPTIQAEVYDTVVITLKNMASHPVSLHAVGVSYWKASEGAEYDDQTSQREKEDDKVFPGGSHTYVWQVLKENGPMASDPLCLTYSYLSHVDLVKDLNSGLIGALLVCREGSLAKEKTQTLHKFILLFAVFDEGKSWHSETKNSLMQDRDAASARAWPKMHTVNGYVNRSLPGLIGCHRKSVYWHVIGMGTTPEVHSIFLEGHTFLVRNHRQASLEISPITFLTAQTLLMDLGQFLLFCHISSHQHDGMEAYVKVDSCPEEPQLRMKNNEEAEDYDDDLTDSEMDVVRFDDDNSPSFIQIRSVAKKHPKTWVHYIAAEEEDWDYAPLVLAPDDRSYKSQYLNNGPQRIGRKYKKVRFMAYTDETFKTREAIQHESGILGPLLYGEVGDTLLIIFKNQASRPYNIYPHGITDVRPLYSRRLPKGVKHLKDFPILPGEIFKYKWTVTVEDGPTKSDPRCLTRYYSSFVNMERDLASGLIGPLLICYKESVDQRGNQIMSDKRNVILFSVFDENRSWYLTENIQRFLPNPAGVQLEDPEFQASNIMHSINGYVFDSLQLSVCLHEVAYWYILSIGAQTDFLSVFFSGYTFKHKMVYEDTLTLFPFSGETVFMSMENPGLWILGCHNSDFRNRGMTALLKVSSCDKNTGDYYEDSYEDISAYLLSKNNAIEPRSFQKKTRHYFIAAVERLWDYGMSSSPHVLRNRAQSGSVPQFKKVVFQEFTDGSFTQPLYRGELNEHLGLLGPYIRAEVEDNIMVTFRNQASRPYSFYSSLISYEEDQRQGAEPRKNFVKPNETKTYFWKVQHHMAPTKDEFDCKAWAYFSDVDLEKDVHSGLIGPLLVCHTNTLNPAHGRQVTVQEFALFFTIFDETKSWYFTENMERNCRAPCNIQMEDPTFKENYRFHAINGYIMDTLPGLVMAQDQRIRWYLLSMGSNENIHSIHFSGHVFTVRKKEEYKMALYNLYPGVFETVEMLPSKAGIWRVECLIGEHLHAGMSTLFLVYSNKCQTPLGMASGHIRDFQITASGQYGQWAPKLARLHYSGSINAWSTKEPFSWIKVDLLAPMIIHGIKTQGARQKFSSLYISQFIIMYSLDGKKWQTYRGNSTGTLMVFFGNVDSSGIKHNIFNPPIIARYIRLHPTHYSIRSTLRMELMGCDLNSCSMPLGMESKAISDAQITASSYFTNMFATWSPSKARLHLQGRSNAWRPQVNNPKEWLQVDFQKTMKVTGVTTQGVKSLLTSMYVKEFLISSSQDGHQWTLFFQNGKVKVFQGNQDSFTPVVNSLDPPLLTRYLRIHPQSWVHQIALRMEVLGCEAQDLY
Assay: ratio of KD-app of Catalyst Biosciences WT FIXa to KD-app of the variant, same Xase assay
attribute_measured: KD-WT/KD-mut (fold)
Please reply with the bare figure in fold and do not write the unit itself.

INSERT INTO results (binder, reading_unit, numeric_value) VALUES
  ('FIXa variant R318Y/R338E/T343R/R403E/E410N (enzyme, also called R150Y/R170E/T175R/R233E/E240N) light: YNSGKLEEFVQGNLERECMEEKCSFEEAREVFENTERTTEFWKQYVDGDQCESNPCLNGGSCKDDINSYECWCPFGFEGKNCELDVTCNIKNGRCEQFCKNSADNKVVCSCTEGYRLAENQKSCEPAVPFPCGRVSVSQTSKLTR heavy: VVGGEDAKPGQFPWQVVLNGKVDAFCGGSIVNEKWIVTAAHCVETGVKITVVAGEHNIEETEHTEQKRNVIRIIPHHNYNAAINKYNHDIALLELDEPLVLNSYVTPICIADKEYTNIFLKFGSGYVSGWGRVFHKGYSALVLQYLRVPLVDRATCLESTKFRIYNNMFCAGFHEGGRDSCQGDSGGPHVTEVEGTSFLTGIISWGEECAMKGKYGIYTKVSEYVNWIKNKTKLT', 'fold', 6.6),
  ('FIXa variant R318Y/R338E/E410S (enzyme, also called R150Y/R170E/E240S) light: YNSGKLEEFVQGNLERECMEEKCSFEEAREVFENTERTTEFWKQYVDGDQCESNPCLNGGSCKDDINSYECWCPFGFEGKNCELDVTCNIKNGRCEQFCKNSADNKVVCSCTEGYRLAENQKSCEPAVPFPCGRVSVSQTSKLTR heavy: VVGGEDAKPGQFPWQVVLNGKVDAFCGGSIVNEKWIVTAAHCVETGVKITVVAGEHNIEETEHTEQKRNVIRIIPHHNYNAAINKYNHDIALLELDEPLVLNSYVTPICIADKEYTNIFLKFGSGYVSGWGRVFHKGYSALVLQYLRVPLVDRATCLESTKFTIYNNMFCAGFHEGGRDSCQGDSGGPHVTEVEGTSFLTGIISWGEECAMKGKYGIYTKVSRYVNWIKSKTKLT', 'fold', 14.1),
  ('FIXa variant I251S/R318Y/R338E/R403E/E410N (enzyme, also called I86S/R150Y/R170E/R233E/E240N) light: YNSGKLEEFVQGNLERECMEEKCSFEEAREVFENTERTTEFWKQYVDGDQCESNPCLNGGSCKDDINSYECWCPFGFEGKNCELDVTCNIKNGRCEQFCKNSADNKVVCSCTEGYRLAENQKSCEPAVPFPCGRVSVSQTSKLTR heavy: VVGGEDAKPGQFPWQVVLNGKVDAFCGGSIVNEKWIVTAAHCVETGVKITVVAGEHNIEETEHTEQKRNVSRIIPHHNYNAAINKYNHDIALLELDEPLVLNSYVTPICIADKEYTNIFLKFGSGYVSGWGRVFHKGYSALVLQYLRVPLVDRATCLESTKFTIYNNMFCAGFHEGGRDSCQGDSGGPHVTEVEGTSFLTGIISWGEECAMKGKYGIYTKVSEYVNWIKNKTKLT', 'fold', 1.5);

Note: attention shifts to another entry.
Item FIXa variant K247N/N249S/N260S (enzyme, also called K82N/N84S/N95S) light: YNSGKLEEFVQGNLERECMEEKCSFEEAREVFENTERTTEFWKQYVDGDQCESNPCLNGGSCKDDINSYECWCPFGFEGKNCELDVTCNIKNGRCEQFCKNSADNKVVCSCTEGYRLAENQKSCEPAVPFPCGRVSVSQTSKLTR heavy: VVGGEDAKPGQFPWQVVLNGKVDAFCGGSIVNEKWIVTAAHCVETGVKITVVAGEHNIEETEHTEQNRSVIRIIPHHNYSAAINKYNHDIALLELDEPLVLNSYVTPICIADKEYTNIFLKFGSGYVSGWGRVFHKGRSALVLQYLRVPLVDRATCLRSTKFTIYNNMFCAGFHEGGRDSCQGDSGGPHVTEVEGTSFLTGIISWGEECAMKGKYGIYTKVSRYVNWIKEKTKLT : provide KD-WT/KD-mut
0.6
